B1: Pistol ribozyme (parent)
chain: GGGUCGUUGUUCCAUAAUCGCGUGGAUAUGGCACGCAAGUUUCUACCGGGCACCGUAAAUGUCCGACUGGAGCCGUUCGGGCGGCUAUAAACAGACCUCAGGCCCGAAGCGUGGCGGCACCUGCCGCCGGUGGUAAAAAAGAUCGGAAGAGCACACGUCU

Variants of: B1
MEASUREMENT PROTOCOL: aptazyme ON/OFF ratio, guanine; higher = stronger switching; co-transcriptional cleavage with and without guanine
READOUT TYPE: aptazyme ON/OFF ratio
Number only, please.

Q: Give its aptazyme ON/OFF ratio value. Item: U7C U8C G9C U10G U11A C13U
Result: 1.09

Q: Try this variant next: U7G G9U U11G C12U C13G
Result: 1.37

Q: Field entry: U7A U8G G9A U10A C12G C13A
Result: 1.52

Q: Also, U7A U8C G9C U10G U11A C13A please.
Result: 1.05

Q: Repeat for the following variant: U7G U8A G9A U10C U11G C12U
Result: 1.28

Q: Quick one: U8G U11G C12A C13G
Result: 1.17

Q: Continue with U7G G9C U10C U11G C12A
Result: 1.14

Q: Next entry: U7G U8C G9C U10C C12G
Result: 1.1

Q: Same for U8G U10A C12U C13G
Result: 1.32

Q: Another variant to check: U7A U8G G9U U10A U11C C12A C13G
Result: 1.2

Q: And U7A U8G G9C U11C ?
Result: 1.35

Q: Next: U8A G9U U10C U11A C13U
Result: 1.17

Q: What would you report for U7G G9A U10G U11G ?
Result: 1.09

Q: Ok, now U7C U8C G9U U10G C12G C13U
Result: 1.09

Q: Also U8C G9U U10C U11A C12U C13A , if possible.
Result: 1.13

Q: Again, but for U7C U10C
Result: 1.92

Q: Same question for U7C U8C G9A U10A U11G C12A C13U please.
Result: 1.16

Q: Subsequent entry: U7A U10A U11A C12A C13G
Result: 1.14

Q: Also, U7A U8G G9A U10G U11C C12A C13U please.
Result: 1.38

Q: Let us now turn to U8G U10C U11C C12U C13A
Result: 1.14

Q: U7A U8G G9C U10G U11A , same question.
Result: 1.07

Q: Repeat for the following variant: U8A G9A U10G U11G C12A C13U
Result: 1.3

Q: How about U7G G9C U11G C12U C13A ?
Result: 1.43

Q: Same read-out for U7A U8C G9A U10A C12A C13A ?
Result: 1.2

Q: What do we get for U7G U8G G9A U10G U11G C12G C13G ?
Result: 1.25

Q: // query: U7G U8C G9A U10G U11A C12A C13U
Result: 1.11

Q: Similarly, U7G U8A U10A U11A C12A ?
Result: 1.08

Q: What would you report for U8A G9A U10G C12G C13G ?
Result: 1.1

Q: Would you kindly repeat that for U8G G9A U11G C12A C13G ?
Result: 1.2

Q: Try G9U U10G U11C C12U next.
Result: 1.08

Q: Another: U10C U11G C12G C13G
Result: 1.23

Q: Another variant to look at: U7C U8A G9U U10A U11G C12G C13G
Result: 1.26

Q: Also need U7A G9A U11A C12U C13U , thanks.
Result: 1.42

Q: Also U7G U8A G9A U10C U11A C12U C13U ?
Result: 1.05

Q: // repeat for U7G U8G U10A C12G and report
Result: 1.29

Q: Same for U7G U8A U10G U11G C12G C13G
Result: 0.981

Q: Also need U7A U8C G9C U10G C13U , thanks.
Result: 1.14

Q: What would you report for U7C U8C G9C U10C U11A C12A C13U ?
Result: 1.1

Q: And what about the variant G9C U10C U11A C13G ?
Result: 1.07
